Molecular target: T1, Murine serum albumin (MSA) (mouse, UniProt P07724 25-608)
T1 construct: Bought protein (Sigma); also called murine albumin; mouse albumin
Experiment: ELISA on coated murine albumin, anti-human Fc HRP, A650, one site-total binding fit
PROPERTY: pKd
Kindly note that pKd refers to -log10 of the concentration in mol/L and answer with the value alone.

BINDER	MEASURED RESULT
4A01v8 (Fc fusion, not shown: a dimerising Fc or GST; small tags and cut ends, also called Hz4A01v8) VHH: EVQLVESGGGEVQPGGSLRLSCAASGFAFSTSGMVWVRQAPGKGLEWVSTISDNARIIRYAESVKGRFTISRDNAKNTLYLQMNSLRAEDTAVYYCATYRAGSRIGSYEDYYRGQGTLVTVKP	9.65
4A01v4 (Fc fusion, not shown: a dimerising Fc or GST; small tags and cut ends, also called Hz4A01v4) VHH: EVQLVESGGGEVQPGGSLRLSCAASGFAFSTSGMVWVRQAPGKGLEWVSTISDESRIIRYAESVKGRFTISRDNAKNTLYLQMNSLRAEDTAVYYCATYRAGSRIGSYEDYYRGQGTLVTVKP	9.60
4A01v5 (Fc fusion, not shown: a dimerising Fc or GST; small tags and cut ends, also called Hz4A01v5) VHH: EVQLVESGGGEVQPGGSLRLSCAASGFAFSTSGMVWVRQAPGKGLEWVSTISDEGRIIRYAESVKGRFTISRDNAKNTLYLQMNSLRAEDTAVYYCATYRAGSRIGSYEDYYRGQGTLVTVKP	9.72

// next entry
Lookup: // query pKd value for entry 4A01v6 (Fc fusion, not shown: a dimerising Fc or GST; small tags and cut ends, also called Hz4A01v6) VHH: EVQLVESGGGEVQPGGSLRLSCAASGFAFSTSGMVWVRQAPGKGLEWVSTISDSGRIIRYAESVKGRFTISRDNAKNTLYLQMNSLRAEDTAVYYCATYRAGSRIGSYEDYYRGQGTLVTVKP
Found: 9.69
